Where do these numbers come from? They come from ChEMBL document CHEMBL1961873.

Give inhibition for every item shown.
- Measured On: Casein kinase I isoform gamma-1 (Homo sapiens) (UniProt Q9HCP0)
- Sequence (Q9HCP0 whole entry, looked up, canonical isoform): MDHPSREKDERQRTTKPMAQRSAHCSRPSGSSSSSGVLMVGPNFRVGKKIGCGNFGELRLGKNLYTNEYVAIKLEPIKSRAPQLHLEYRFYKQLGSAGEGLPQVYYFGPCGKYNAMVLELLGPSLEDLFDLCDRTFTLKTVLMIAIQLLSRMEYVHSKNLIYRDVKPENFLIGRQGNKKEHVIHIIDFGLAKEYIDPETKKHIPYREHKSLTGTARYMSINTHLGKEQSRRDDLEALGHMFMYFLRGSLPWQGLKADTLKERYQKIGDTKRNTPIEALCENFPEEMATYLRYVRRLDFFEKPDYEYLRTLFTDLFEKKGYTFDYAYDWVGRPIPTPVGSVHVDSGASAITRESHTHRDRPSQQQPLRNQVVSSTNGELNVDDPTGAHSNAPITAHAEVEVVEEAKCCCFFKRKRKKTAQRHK
- Experimental Setup: at 0.1 µM

- Molecule: "Nc1ncnc2occ(-c3ccc(NC(=O)Nc4cc(C(F)(F)F)cc(C(F)(F)F)c4)cc3)c12"
  inhibition: "1.49%"
- Molecule: "CC1=C(C(=O)Nc2ccc3[nH]ncc3c2)C(c2ccc(Cl)c(Cl)c2)CC(=O)N1 (centres undefined)"
  inhibition: "0.83%"
- Molecule: "CCn1c(-c2nonc2N)nc2cncc(C(=O)N3CC[C@H](N)C3)c21"
  inhibition: "3.59%"
- Molecule: "CS(=O)(=O)CCNCc1ccc(-c2ccc3ncnc(Nc4ccc(OCc5cccc(F)c5)c(C(F)(F)F)c4)c3c2)o1"
  inhibition: "3.11%"

Batch request: inhibition per item, same order as input.
1. Cc1nn(C)c2cc(N(C)c3ccnc(Nc4cccc(S(N)(=O)=O)c4)n3)ccc12
2. COc1cc2ncn(-c3cc(O[C@H](C)c4ccccc4Cl)c(C(N)=O)s3)c2cc1OC
3. Nc1ncnc2occ(-c3ccc(NC(=O)Nc4cccc(C(F)(F)F)c4)cc3)c12

Result:
2.37%
3.26%
5.08%

Batch request: inhibition per item, same order as input.
1. CCCN1CCC=C(c2ccc(Nc3nc(Nc4ccccc4C(N)=O)c4cc[nH]c4n3)c(C)c2)C1
2. CN1CCC(C(=O)Nc2n[nH]c3nnc(-c4ccccc4)cc23)CC1

Result:
["22.5%", "5.08%"]

====

- Measured On: Tyrosine-protein kinase BTK (Homo sapiens)
- Experimental Setup: at 1 µM
Measured Property: inhibition (%)
One number for each entry, in %.

Batch request: inhibition per item, same order as input.
1. COc1cc2c(cc1Nc1nc(N3CCc4ccccc43)c3cc[nH]c3n1)N(C(=O)CN(C)C)CC2
2. CC(=O)Nc1cccc(C#Cc2cncnc2Nc2ccc(OCc3cccc(F)c3)c(Cl)c2)n1
3. COc1cc2ncn(-c3cc(O[C@@H](C)c4ccccc4Cl)c(C(N)=O)s3)c2cc1OC
4. COc1ccc(-c2nn3ncccc3c2-c2ccnc(Nc3ccc(Cl)c(C(F)(F)F)c3)n2)cc1
5. Cc1cccc(-c2n[nH]cc2-c2ccc3ncccc3n2)n1

Result:
1: 2.65; 2: 0.86; 3: 1.4; 4: 0.36; 5: -1.51

====

Give inhibition for every item shown.
- Measured On: Serine/threonine-protein kinase MRCK beta (Homo sapiens)
- Experimental Setup: at 0.1 µM
One number for each entry, in %.

- Compound: "NS(=O)(=O)c1ccc(N/N=C2\\C(=O)Nc3ccc(C(=O)NCCc4c[nH]cn4)cc32)cc1"
  Units: "%"
  inhibition: 1.24

Batch request: inhibition per item, same order as input.
1. CC(=O)Nc1cccc(C#Cc2cncnc2Nc2ccc(OCc3cccc(F)c3)c(Cl)c2)n1
2. COc1ccc(-c2ccncc2)cc1C(N)=O
3. COc1ccc(-c2coc3ncnc(N)c23)cc1
4. COc1cc(C)c(NC(=O)CN(C)C)cc1Nc1nc(Nc2cccc(F)c2C(N)=O)c2cc[nH]c2n1

Result:
1. 0.72
2. -0.49
3. 1.16
4. -0.26

Batch request: inhibition per item, same order as input.
1. Nc1ncnc2occ(-c3ccc(NC(=O)Nc4cc(C(F)(F)F)cc(C(F)(F)F)c4)cc3)c12
2. O=C1NC(=O)C(N2CCc3ccccc32)=C1c1ccc(Cl)cc1

Result:
1. 0.11
2. 0.69

====

Give inhibition for every item shown.
- Measured On: Aurora kinase A (Homo sapiens) (UniProt O14965)
- Sequence (O14965 whole entry): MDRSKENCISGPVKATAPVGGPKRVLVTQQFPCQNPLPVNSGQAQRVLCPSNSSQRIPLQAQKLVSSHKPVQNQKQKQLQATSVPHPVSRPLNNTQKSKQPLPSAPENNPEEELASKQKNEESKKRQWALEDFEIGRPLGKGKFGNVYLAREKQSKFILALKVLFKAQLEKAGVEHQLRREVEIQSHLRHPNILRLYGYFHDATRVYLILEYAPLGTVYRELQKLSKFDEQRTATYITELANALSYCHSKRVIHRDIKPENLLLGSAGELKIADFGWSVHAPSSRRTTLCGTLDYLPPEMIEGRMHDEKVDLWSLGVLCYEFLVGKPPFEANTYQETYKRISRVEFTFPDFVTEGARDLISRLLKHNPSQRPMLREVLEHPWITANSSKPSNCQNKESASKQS
- Experimental Setup: at 0.1 µM
Give bare numbers, in %.

- Compound: "c1cnn2ncc(-c3ccnc(Nc4ccc5c(c4)OCCO5)n3)c2c1"
  Measured Property: "inhibition"
  Numeric Value: 9.49

Batch request: inhibition per item, same order as input.
1. NC(=O)c1ccc(-c2nc(-c3ccccn3)c(-c3ccc4c(c3)OCO4)[nH]2)cc1
2. O=C1NC(=O)C(c2ccc(Cl)cc2)=C1Nc1ccc(Cl)c(C(=O)O)c1
3. [O-][S+]1CCN(Cc2ccc(-c3ccc4ncnc(Nc5ccc(OCc6ccccc6)c(F)c5)c4c3)o2)CC1
4. CCn1c(-c2nonc2N)nc2c(C#CC(C)(C)O)nc(OC[C@@H](N)c3ccccc3)cc21
5. CCn1c(-c2nonc2N)nc2cncc(C(=O)N3CC[C@H](N)C3)c21
6. COc1ccc2cc(-c3c(-c4ccncc4)nc(-c4ccc([S+](C)[O-])cc4)n3C)ccc2c1 (centres undefined)

Result:
1.85
-3.12
2.01
1.81
3.07
3.45

Batch request: inhibition per item, same order as input.
1. CCCN1CCC=C(c2ccc(Nc3nc(Nc4ccccc4C(N)=O)c4cc[nH]c4n3)c(C)c2)C1
2. CCn1c(-c2nonc2N)nc2c(C#CC(C)(C)O)nc(CN3CCCC3)cc21
3. O=C1NC(=O)C(N2CCc3ccccc32)=C1c1ccc(Cl)cc1

Result:
1: 6.15; 2: 0.54; 3: 2.79

Batch request: inhibition per item, same order as input.
1. CS(=O)(=O)CCNCc1nc(-c2ccc3ncnc(Nc4ccc(F)c(Cl)c4)c3c2)cs1
2. COc1ccc(-c2nn3ncccc3c2-c2ccnc(Nc3ccc(Cl)c(C(F)(F)F)c3)n2)cc1
3. O=C1Nc2ccc(C(=O)c3ccco3)cc2C1=Cc1cc(Cl)c(O)c(Cl)c1
4. Cc1cccc(-c2n[nH]cc2-c2ccc3ncccc3n2)n1

Result:
[1.71, 1.01, 7.35, 2.76]

Batch request: inhibition per item, same order as input.
1. CS(=O)(=O)CCNCc1ccc(-c2ccc3ncnc(Nc4ccc(OCc5ccccc5)c(Cl)c4)c3c2)o1
2. Nc1nc(-c2ccc3c(c2)C(=Cc2cc(Br)c(O)c(Br)c2)C(=O)N3)cs1

Result:
1: 0.56; 2: -1.16

====

- Measured On: MAP/microtubule affinity-regulating kinase 3 (Homo sapiens)
- Experimental Setup: at 1 µM
Measured Property: inhibition (%)
Numbers only, in %.

- Molecule: "CCn1c(-c2nonc2N)nc2cnc(Oc3cccc(NC(=O)c4ccc(OCCN5CCOCC5)cc4)c3)cc21"
  Units: "%"
  Numeric Value: 8.24
- Molecule: "CS(=O)(=O)CCNCc1ccc(-c2ccc3ncnc(Nc4ccc(OCc5cccc(F)c5)c(C(F)(F)F)c4)c3c2)o1"
  Units: "%"
  Numeric Value: -2.72
- Molecule: "CC(C)=Cc1cccc2c1/C(=N/Nc1ccc(S(N)(=O)=O)cc1)C(=O)N2"
  Units: "%"
  Numeric Value: 20.6
- Molecule: "CC1=C(C(=O)Nc2ccc3[nH]ncc3c2)C(c2ccc3ccccc3c2)CC(=O)N1 (stereo not given)"
  Units: "%"
  Numeric Value: 4.13

Turning to the following molecule.
Request: Give inhibition (MAP/microtubule affinity-regulating kinase 3 (Homo sapiens)) of the following molecule: Fc1cccc(COc2ccc(Nc3ncnc4sc(-c5cccs5)cc34)cc2Cl)c1
Result: 3.4

====

- Measured On: Serine/threonine-protein kinase PAK 1 (Homo sapiens) (UniProt Q13153)
- Sequence (Q13153 whole entry): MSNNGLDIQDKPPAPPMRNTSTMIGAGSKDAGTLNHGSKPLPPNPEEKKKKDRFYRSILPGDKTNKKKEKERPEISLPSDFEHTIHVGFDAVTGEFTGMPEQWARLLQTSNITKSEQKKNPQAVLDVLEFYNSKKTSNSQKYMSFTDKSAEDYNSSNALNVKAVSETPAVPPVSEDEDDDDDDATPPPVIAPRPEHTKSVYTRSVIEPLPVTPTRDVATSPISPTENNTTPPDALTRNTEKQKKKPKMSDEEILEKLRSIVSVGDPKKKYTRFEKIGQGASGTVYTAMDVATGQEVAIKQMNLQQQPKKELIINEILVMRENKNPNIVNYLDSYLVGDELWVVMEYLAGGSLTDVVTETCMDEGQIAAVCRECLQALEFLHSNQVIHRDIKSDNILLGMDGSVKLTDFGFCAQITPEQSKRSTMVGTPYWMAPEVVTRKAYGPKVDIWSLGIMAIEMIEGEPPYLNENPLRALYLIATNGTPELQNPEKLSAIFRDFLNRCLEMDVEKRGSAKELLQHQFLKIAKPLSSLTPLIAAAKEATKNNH
- Experimental Setup: at 0.1 µM
Measured Property: inhibition

# example entries with known answers
- Smiles Structure: "Cc1nnc(-c2ccc(C)c(-c3ccc(C(=O)Nc4cccc(C#N)c4)cc3)c2)o1"
  inhibition: "5.8%"
- Smiles Structure: "COC(=O)Nc1nc2cc(Oc3cccc(NC(=O)Nc4cc(C(F)(F)F)ccc4F)c3)ccc2[nH]1"
  inhibition: "3.97%"

Batch request: inhibition per item, same order as input.
1. CS(=O)(=O)CCN(CC#N)Cc1ccc(-c2ccc3ncnc(Nc4ccc(OCc5cccc(F)c5)c(Cl)c4)c3c2)o1
2. COc1cc2ncn(-c3cc(OCc4ccccc4C(F)(F)F)c(C(N)=O)s3)c2cc1OC

Result:
1: 1.88%; 2: 3.79%

====

- Measured On: Serine/threonine-protein kinase Nek7 (Homo sapiens) (UniProt Q8TDX7)
- Sequence (Q8TDX7 whole entry, looked up): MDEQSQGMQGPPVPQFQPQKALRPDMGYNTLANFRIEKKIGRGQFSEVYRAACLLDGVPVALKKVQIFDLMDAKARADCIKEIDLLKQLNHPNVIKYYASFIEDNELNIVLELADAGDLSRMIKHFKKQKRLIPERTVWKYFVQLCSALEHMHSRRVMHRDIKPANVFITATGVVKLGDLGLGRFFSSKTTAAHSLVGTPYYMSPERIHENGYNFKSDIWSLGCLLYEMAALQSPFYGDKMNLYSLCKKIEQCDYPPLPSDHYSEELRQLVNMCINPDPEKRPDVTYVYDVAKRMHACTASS
- Experimental Setup: at 0.1 µM
Give inhibition for every item shown.
Numbers only, in %.

Batch request: inhibition per item, same order as input.
1. CC1=C(C(=O)Nc2ccc3[nH]ncc3c2)C(c2ccc(F)cc2)NC(=O)N1 (configuration not stated)
2. Nc1nc(-c2ccc3c(c2)C(=Cc2cc(Br)c(O)c(Br)c2)C(=O)N3)cs1
3. CCn1c(-c2nonc2N)nc2cnc(Oc3cccc(NC(=O)c4ccc(OCCN5CCOCC5)cc4)c3)cc21
4. CC(=O)Nc1cccc(C#Cc2cncnc2Nc2ccc(OCc3cccc(F)c3)c(Cl)c2)n1
5. O=C1NC(=O)C(c2ccccc2Cl)=C1Nc1cccc(O)c1

Result:
1. 3.54
2. 2.05
3. 6.06
4. -4.17
5. 4.66

Batch request: inhibition per item, same order as input.
1. O=C(Nc1n[nH]c2nc(-c3ccco3)c(Br)cc12)C1CC1
2. COC(=O)Nc1nc2cc(Oc3ccc(NC(=O)Nc4cccc(C(=O)O)c4)cc3)ccc2[nH]1
3. COc1cc(C=NNc2ncnc3c2cnn3-c2ccccc2)ccc1O
4. CCn1c(-c2nonc2N)nc2c(C#CC(C)(C)O)nc(CN3CCCC3)cc21

Result:
1: 4.18; 2: -2.43; 3: 3.01; 4: 2.37
